# Test system: SK-MEL-2 melanoma
# Assay name: NCI tumour cell line growth inhibition, 48 h
Values of TGI greater than or equal to 10 µM map to true; values below map to false.

[
  {
    "Compound": "CCOC(=O)c1sc2nc(SC)nc3c2c1NCN3c1ccc2c(c1)OCO2",
    "Category": "true"
  },
  {
    "Compound": "Oc1cccc2ccc(N/N=C/c3cc(CN4CCOCC4)c(O)c4ncccc34)nc12",
    "Category": "false"
  },
  {
    "Compound": "CC(C)=CCN1CC(C)C(=O)Nc2ccccc21 (configuration not stated)",
    "Category": "true"
  },
  {
    "Compound": "Cn1c(-c2ccccc2)cc(-c2cccs2)c1-c1cccs1",
    "Category": "true"
  },
  {
    "Compound": "C[N+]12C=CC=C1C(N1CCCC1)c1scc(-c3ccccc3)c12 (configuration not stated)",
    "Category": "true"
  },
  {
    "Compound": "c1cc2nnc1SCCCSc1ccc(nn1)SCCCS2",
    "Category": "true"
  }
]

Exercise: Entry `Cc1cc[n+]2c(c1)-c1cc(C)cc[n+]1CC2` : is its TGI no less than 10 µM?
Key: true

Exercise: Entry `COC(=O)[C@H]1CCCN1C(=O)[C@H]1CCCN1C(=O)[C@@H](Cc1c[nH]c2ccccc12)NC(=S)Nc1cc(C(F)(F)F)cc(C(F)(F)F)c1` : is its TGI no less than 10 µM?
Key: false

Exercise: Entry C=C1CC(c2ccc(OCCCN3C(=O)c4ccccc4C3=O)cc2)OC1=O (configuration not stated) : is its TGI no less than 10 µM?
Key: false

Exercise: Entry CCOC(=O)CNC(=O)C(CSC(=O)N(O)c1ccc(Cl)cc1)NC(=O)CCC(N)C(=O)OCC (configuration not stated) : is its TGI no less than 10 µM?
Key: true

Exercise: Entry `CN(C)C(=NCc1ccccc1)NC#N` : is its TGI no less than 10 µM?
Key: true

Exercise: Entry C[N+](C)(C)CC1CCCC1=O (configuration not stated) : is its TGI no less than 10 µM?
Key: true

====

# Test system: EKVX NSCLC
# Assay name: NCI tumour cell line growth inhibition, 48 h; in the data active = GI50 below about 0.43 µM; inactive = the rest
Where a SMILES comes first, the peptide text is derived from it. The star is where a group is joined. Palmitoyl = CCCCCCCCCCCCCCCC(=O)*
Pick from true (active), false (inactive) when you respond.

Example cases with answers are listed next.
[
  {
    "Molecule": "N#CC1=C(/N=C/c2ccccc2)Oc2c(ccc3ccccc23)C1c1ccccc1 (stereo unspecified)",
    "Category": "false"
  },
  {
    "Molecule": "CC(C)(O)CNc1nc(Nc2ccnc(C(F)(F)F)c2)nc(-c2cccc(C(F)(F)F)n2)n1",
    "Category": "false"
  },
  {
    "Molecule": "CCCCCCNC(=O)Oc1ccc(/C(=C(\\C)c2ccc(Cl)cc2)c2ccc(OCCN3CCCCC3)cc2)cc1",
    "Category": "false"
  },
  {
    "Molecule": "Oc1c(I)cc(I)c2cccnc12",
    "Category": "false"
  },
  {
    "Molecule": "C/C(=C\\c1cnc(C)s1)[C@@H]1C[C@@H]2O[C@@H]2CCC[C@H](C)[C@H](O)[C@@H](C)C(=O)C(C)(C)[C@@H](O)CC(=O)O1",
    "Category": "true"
  },
  {
    "Molecule": "Oc1cccc2ccc(N/N=C/c3cc(CN4CCOCC4)c(O)c4ncccc34)nc12",
    "Category": "true"
  }
]

Exercise: So what was the verdict on CCCCCCCCCCCCCCCC(=O)N1CCCC1C(=O)NCC(=O)NC(Cc1ccccc1)C(=O)NC(C)C(=O)NC(CO)C(=O)NC(Cc1ccc(O)cc1)C(=O)NC(CCCCN)C(=O)NC(CC(C)C)C(=O)NC(CCCN=C(N)N)C(=O)N1CCCC1C(=O)NCC(N)=O (stereo unspecified) (Palmitoyl-PGFASYKLRPG-NH2; configuration not given here) in this test?
Key: false

Exercise: So what was the verdict on `Cc1cc(C)nc(SC2=C(Nc3cc(Cl)ccc3O)C(=O)N(Cc3ccccc3)C2=O)n1` in this test?
Key: false

Exercise: So what was the verdict on CC1OC(OC2C(O)CC(OC3C(O)CC(OC4CCC5(C)C(CCC6C5CC(O)C5(C)C(C7=CC(=O)OC7)CCC65O)C4)OC3C)OC2C)CC(O)C1O (stereo unspecified) in this test?
Key: true

Exercise: So what was the verdict on `CN(CCNCc1ccccn1)CCNCc1ccccn1` in this test?
Key: false

Exercise: So what was the verdict on C#CCNC(=O)[C@H](CC)[C@H]1CC[C@H](C)[C@H]([C@@H](C)[C@H](O)[C@H](C)C(=O)[C@H](CC)C2O[C@]3(C=CC(=O)[C@]4(CC[C@@](C)([C@H]5CC[C@](O)(CC)[C@H](C)O5)O4)O3)[C@H](C)C[C@@H]2C)O1 (stereo partly specified) in this test?
Key: false
